Assignment: determine reported log10 of Kd for the given molecules.
TESTED TARGET: E. coli SPase (Escherichia coli, UniProt P00803)
Construct: Full length His-tagged E. coli SPase proteins were expressed in E. coli BL21(DE3); His-tag; made in house; host or cells: E. coli BL21(DE3)
MEASUREMENT DESCRIPTION: Steady state binding constant (Kd) determination by fluorescence increase
Please be aware that the numbers have been log10-transformed from Kd in nM.

MOLECULE | log10 of Kd
CCCCCCCCCCCCCCCC(=O)N(C)[C@H](CO)C(=O)N[C@H](C)C(=O)NCC(=O)N(C)[C@@H]1C(=O)N[C@@H](C)C(=O)N[C@H](C(=O)N[C@@H](C)C(N)=O)Cc2ccc(O)c(c2)-c2cc1ccc2O | 3.76

Dear colleague, could you send me log10 of Kd for each of the items below? Thanks.
1. CCCCCCCCCCCCCCCC(=O)N(C)[C@H](CO)C(=O)N[C@H](C)C(=O)NCC(=O)N(C)[C@@H]1C(=O)N[C@@H](C)C(=O)N[C@H](C(=O)N(C)C)Cc2ccc(O)c(c2)-c2cc1ccc2O
2. CCCCCCCCCCCCCCCC(=O)N(C)[C@H](CO)C(=O)N[C@H](C)C(=O)NCC(=O)N(C)[C@@H]1C(=O)N[C@@H](C)C(=O)N[C@H](C(=O)N[C@@H](C)C(=O)O)Cc2ccc(O)c(c2)-c2cc1ccc2O
3. CCCCCCCCCCCCCCCC(=O)N(C)[C@H](CO)C(=O)N[C@H](C)C(=O)NCC(=O)N(C)[C@@H]1C(=O)N[C@@H](C)C(=O)N[C@H](C(=O)NS(C)(=O)=O)Cc2ccc(O)c(c2)-c2cc1ccc2O
4. CCCCCCCCCCCCCCCC(=O)N(C)[C@H](CO)C(=O)N[C@H](C)C(=O)NCC(=O)N(C)[C@@H]1C(=O)N[C@@H](C)C(=O)N[C@H](C(=O)N[C@H](C)C(=O)O)Cc2ccc(O)c(c2)-c2cc1ccc2O

1. 3.30
2. 4.08
3. 3.00
4. 3.45

Entry CCCCCCCCCCCCCCCC(=O)N(C)[C@H](CO)C(=O)N[C@H](C)C(=O)NCC(=O)N(C)[C@@H]1C(=O)N[C@@H](C)C(=O)N[C@H](C(=O)N[C@@H](C)C(=O)N2CCCC2C(N)=O)Cc2ccc(O)c(c2)-c2cc1ccc2O (stereo partly drawn) : reported log10 of Kd = ?
3.45

----------
TESTED TARGET: S. aureus SPase (Staphylococcus aureus, UniProt P0A070)
Construct: Full length His-tagged S. aureus SPase protein was expressed similarly; His-tag; made in house; host or cells: E. coli BL21(DE3)
MEASUREMENT DESCRIPTION: Steady state binding constant (Kd) determination by fluorescence increase
Assignment: determine reported pKd for the given molecules.
Give bare numbers, as −log10 of the molar value.

Here are 4 molecules together with their reported answers.
MOLECULE | ASSAY RESULT
CCCCCCCCCCCCCCCC(=O)N(C)[C@H](CO)C(=O)N[C@H](C)C(=O)NCC(=O)N(C)[C@@H]1C(=O)N[C@@H](C)C(=O)N[C@H](C(N)=O)Cc2ccc(O)c(c2)-c2cc1ccc2O | 5.68
CCCCCCCCCCCCCCCC(=O)N(C)[C@H](CO)C(=O)N[C@H](C)C(=O)NCC(=O)N(C)[C@@H]1C(=O)N[C@@H](C)C(=O)N[C@H](C(=O)N[C@@H](C)C(=O)N2CCCC2C(N)=O)Cc2ccc(O)c(c2)-c2cc1ccc2O (stereo partly drawn) | 6.22
CCCCCCCCCCCCCCCC(=O)N(C)[C@H](CO)C(=O)N[C@H](C)C(=O)NCC(=O)N(C)[C@@H]1C(=O)N[C@@H](C)C(=O)N[C@H](C(=O)NS(C)(=O)=O)Cc2ccc(O)c(c2)-c2cc1ccc2O | 4.72
CCCCCCCCCCCCCCCC(=O)N(C)[C@H](CO)C(=O)N[C@H](C)C(=O)NCC(=O)N(C)[C@@H]1C(=O)N[C@@H](C)C(=O)N[C@H](C(=O)NCC(=O)O)Cc2ccc(O)c(c2)-c2cc1ccc2O | 5.54

Entry CCCCCCCCCCCCCCCC(=O)N(C)[C@H](CO)C(=O)N[C@H](C)C(=O)NCC(=O)N(C)[C@@H]1C(=O)N[C@@H](C)C(=O)N[C@H](C(=O)N[C@@H](C)C(N)=O)Cc2ccc(O)c(c2)-c2cc1ccc2O : reported pKd = ?
5.70

----------
Test system: S. pneumoniae D39
MEASUREMENT DESCRIPTION: In vitro antimicrobial activity, MIC by broth micro-dilution
Format: cell-based
COND: Streptococcus pneumoniae, D39; read-out: MIC class, S. pneumoniae D39
Assignment: determine reported MIC for the given compounds.

Here are 3 compounds together with their reported answers.
COMPOUND | TESTED TARGET | MIC
CCCCCCCCCCCCCCCC(=O)N(C)C(CO)C(=O)N[C@H](C)C(=O)NCC(=O)N(C)[C@@H]1C(=O)N[C@@H](C)C(=O)NC(C(=O)NCC(O)CO)Cc2ccc(O)c(c2)-c2cc1ccc2O (stereo partly shown) | S. pneumoniae D39 | 16 to 64 µg/mL
CCCCCCc1ccc(C(=O)N(C)[C@H](CO)C(=O)N[C@H](C)C(=O)N[C@@H](CCCCN)C(=O)N(C)[C@@H]2C(=O)N[C@@H](C)C(=O)N[C@H](C(=O)O)Cc3ccc(O)c(c3)-c3cc2ccc3O)cc1 | S. pneumoniae D39 | > 64 µg/mL
CCCCCCCCCCCCCCCC(=O)N(C)[C@H](CO)C(=O)N[C@H](C)C(=O)NCC(=O)N(C)[C@@H]1C(=O)N[C@@H](C)C(=O)N[C@H](C(=O)OCCN)Cc2ccc(O)c(c2)-c2cc1ccc2O | S. pneumoniae D39 | < 8 µg/mL

Now consider a different compound.
Entry CCCCCCCCCCCCCCCC(=O)N(C)[C@H](CO)C(=O)N[C@H](C)C(=O)NCC(=O)N(C)[C@@H]1C(=O)N[C@@H](C)C(=O)N[C@H](C(=O)N[C@@H](CO)C(C)C)Cc2ccc(O)c(c2)-c2cc1ccc2O : reported MIC = ?
16 to 64 µg/mL

----------
Assignment: determine reported IC50 for the given molecules.
TESTED TARGET: E. coli SPase (Escherichia coli, UniProt P00803)
Construct: Full length His-tagged E. coli SPase proteins were expressed in E. coli BL21(DE3); His-tag; made in house; host or cells: E. coli BL21(DE3)
MEASUREMENT DESCRIPTION: Enzymatic fluorogenic substrate cleavage assay for IC50
Assay type: biochemical

Here are 2 molecules together with their reported answers.
MOLECULE | IC50
CCCCCCCCCCCCCCCC(=O)N(C)[C@H](CO)C(=O)N[C@H](C)C(=O)NCC(=O)N(C)[C@@H]1C(=O)N[C@@H](C)C(=O)N[C@H](C(=O)NC(CO)CO)Cc2ccc(O)c(c2)-c2cc1ccc2O [Compound 67] | > 10000 nM
CCCCCCCCCCCCCCCC(=O)N(C)[C@H](CO)C(=O)N[C@H](C)C(=O)NCC(=O)N(C)[C@@H]1C(=O)N[C@@H](C)C(=O)N[C@H](C(=O)NCC(O)C(=O)O)Cc2ccc(O)c(c2)-c2cc1ccc2O (stereo partly drawn) [Compound 78] | < 1000 nM

Now consider a different molecule.
Entry CCCCCCCCCCCCCCCC(=O)N(C)[C@H](CO)C(=O)N[C@H](Cc1ccccc1)C(=O)NCC(=O)N(C)[C@@H]1C(=O)N[C@@H](C)C(=O)N[C@H](C(=O)O)Cc2ccc(O)c(c2)-c2cc1ccc2O [Compound 39] : reported IC50 = ?
< 1000 nM

----------
System: S. epidermidis ATCC 12228
MEASUREMENT DESCRIPTION: In vitro antimicrobial activity, MIC by broth micro-dilution
Format: cell-based
COND: Staphylococcus epidermidis, ATCC12228, read-out: MIC
VALUE KIND: MIC (µg/mL)
One number for each entry, in µg/mL.

Here are 6 compounds together with their reported answers.
MOL | ASSAY RESULT
CCCCCCCCCCCCCCCC(=O)N(C)[C@H](CO)C(=O)N[C@H](C)C(=O)NCC(=O)N(C)[C@@H]1C(=O)N[C@@H](C)C(=O)N[C@H](C(=O)N[C@H](C)C(=O)C(=O)N(C)C)Cc2ccc(O)c(c2)-c2cc1ccc2O | 32
CCCCCCCCCCCCCCCC(=O)N(C)[C@H](CO)C(=O)N[C@H](C)C(=O)NCC(=O)N(C)[C@@H]1C(=O)N[C@@H](C)C(=O)N[C@H](C(=O)NCC(=O)N2CCC[C@H]2C(=O)O)Cc2ccc(O)c(c2)-c2cc1ccc2O | 32
CCCCCCCCCCCCCCCC(=O)N(C)[C@H](CO)C(=O)N[C@H](C)C(=O)NCC(=O)N(C)[C@@H]1C(=O)N[C@@H](C)C(=O)N[C@H](C(=O)N[C@H](C)C(=O)O)Cc2ccc(O)c(c2)-c2cc1ccc2O | 32
CCCCCCCCCCCCCCCC(=O)N(C)[C@H](CO)C(=O)N[C@H](C)C(=O)NCC(=O)N(C)[C@@H]1C(=O)N[C@@H](C)C(=O)N[C@H](C(=O)N[C@@H](C)C(=O)O)Cc2ccc(O)c(c2)-c2cc1ccc2O | 32
CCCCCCCCCCCCCCCC(=O)N(C)[C@H](CO)C(=O)N[C@H](C)C(=O)NCC(=O)N(C)[C@@H]1C(=O)N[C@@H](C)C(=O)N[C@H](C(=O)N[C@@H](C)C(=O)N2CCC[C@H]2C(=O)O)Cc2ccc(O)c(c2)-c2cc1ccc2O | 16
CCCCCCCCCCCCCCCC(=O)N(C)[C@H](CO)C(=O)N[C@H](C)C(=O)NCC(=O)N(C)[C@@H]1C(=O)N[C@@H](C)C(=O)N[C@H](C(=O)N[C@@H](C)C(=O)C(=O)N(C)C)Cc2ccc(O)c(c2)-c2cc1ccc2O | 16

Now consider a different compound.
Entry CCCCCCCCCCCCCCCC(=O)N(C)[C@H](CO)C(=O)N[C@H](C)C(=O)NCC(=O)N(C)[C@@H]1C(=O)N[C@@H](C)C(=O)N[C@H](C(=O)NCC(=O)O)Cc2ccc(O)c(c2)-c2cc1ccc2O : reported MIC = ?
32
